# Geo mean (%) at 0.19 nM per record follows
# system under test: T1, human CD200R1 expressed on cells (Jurkat-CD200R1, U937-CD200R1, HH cells) (human, UniProt Q8TD46 25-348)
# T1 construct: whole, on cells; also called HH (CRL-2105); cell surface-expressed CD200R1
# T1 sequence (looked up): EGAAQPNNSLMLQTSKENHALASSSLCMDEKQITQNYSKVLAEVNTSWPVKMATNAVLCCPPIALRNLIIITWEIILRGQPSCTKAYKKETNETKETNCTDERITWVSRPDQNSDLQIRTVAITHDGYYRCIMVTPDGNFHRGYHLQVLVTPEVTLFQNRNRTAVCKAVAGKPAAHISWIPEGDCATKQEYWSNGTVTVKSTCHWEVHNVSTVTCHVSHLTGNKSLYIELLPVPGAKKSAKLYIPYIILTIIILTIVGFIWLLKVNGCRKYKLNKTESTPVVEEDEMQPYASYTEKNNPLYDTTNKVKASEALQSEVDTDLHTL
# test: flow cytometry, HH cells; drawn table

Example results:
P001018 scFv mutant L3-R92H (scFv) scFv: QVQLVQSGAEVKKPGASVKVSCKASGYTFTSYVMHWVRQAPGQGLEWMGYINPYNDDTNYNEKFKGRVTMTRDTSTSTVYMELSSLRSEDTAVYYCAREDYYGSRWGYWGQGTLVTVSSGGGGSGGGGSGGGGSDIVLTQSPASLAVSPGQRATITCRASKSVSTSGYSYMHWYQQKPGQPPKLLIYLASNLESGVPARFSGSGSGTDFTLTINPVEANDTANYYCQHSHELLTFGQGTKVEIK    8.7%
P001018 scFv mutant L3-R92S (scFv) scFv: QVQLVQSGAEVKKPGASVKVSCKASGYTFTSYVMHWVRQAPGQGLEWMGYINPYNDDTNYNEKFKGRVTMTRDTSTSTVYMELSSLRSEDTAVYYCAREDYYGSRWGYWGQGTLVTVSSGGGGSGGGGSGGGGSDIVLTQSPASLAVSPGQRATITCRASKSVSTSGYSYMHWYQQKPGQPPKLLIYLASNLESGVPARFSGSGSGTDFTLTINPVEANDTANYYCQHSSELLTFGQGTKVEIK    4.5%

Now for a further binder.
input: Could you please provide reported Geo mean (%) at 0.19 nM for P001018 scFv mutant H3-Y102T (scFv) scFv: QVQLVQSGAEVKKPGASVKVSCKASGYTFTSYVMHWVRQAPGQGLEWMGYINPYNDDTNYNEKFKGRVTMTRDTSTSTVYMELSSLRSEDTAVYYCAREDYYGSRWGTWGQGTLVTVSSGGGGSGGGGSGGGGSDIVLTQSPASLAVSPGQRATITCRASKSVSTSGYSYMHWYQQKPGQPPKLLIYLASNLESGVPARFSGSGSGTDFTLTINPVEANDTANYYCQHSRELLTFGQGTKVEIK ? Thanks!
output: 5.8%
